biological target: human DPP-IV (Homo sapiens); assay: DPP-IV activity assay (fluorogenic / colorimetric); details: natural human DPP-IV from plasma pool or recombinant human DPP-IV; 37° C., pH 7.8
Sequence (P27487 31-766): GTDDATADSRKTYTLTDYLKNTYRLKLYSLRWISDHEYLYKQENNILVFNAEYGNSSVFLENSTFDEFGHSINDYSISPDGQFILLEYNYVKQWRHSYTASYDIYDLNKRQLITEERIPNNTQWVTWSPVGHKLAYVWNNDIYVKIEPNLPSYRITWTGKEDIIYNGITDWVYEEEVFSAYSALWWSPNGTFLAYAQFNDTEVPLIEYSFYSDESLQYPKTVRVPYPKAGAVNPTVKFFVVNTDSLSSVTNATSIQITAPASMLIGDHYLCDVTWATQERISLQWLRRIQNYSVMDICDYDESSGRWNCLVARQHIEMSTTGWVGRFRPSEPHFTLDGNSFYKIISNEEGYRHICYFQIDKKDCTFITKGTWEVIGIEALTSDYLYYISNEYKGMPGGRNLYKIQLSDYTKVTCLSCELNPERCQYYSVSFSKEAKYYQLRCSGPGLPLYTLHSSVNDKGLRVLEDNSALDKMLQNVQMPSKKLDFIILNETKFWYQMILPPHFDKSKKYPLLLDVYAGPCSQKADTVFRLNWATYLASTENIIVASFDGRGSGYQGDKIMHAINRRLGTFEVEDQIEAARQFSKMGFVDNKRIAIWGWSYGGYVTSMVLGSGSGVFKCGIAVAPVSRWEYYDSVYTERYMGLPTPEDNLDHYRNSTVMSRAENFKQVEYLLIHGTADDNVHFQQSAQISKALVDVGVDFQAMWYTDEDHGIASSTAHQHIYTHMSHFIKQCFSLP
valueType: Ki (nM)
Lab book: enter the figure in nM, no units written.

**Query** Reported Ki, molecule Cc1oc(-c2ccccc2)nc1CCNCC(=O)N1CCC[C@H]1C#N [mesylate] : ____
**Result** 80

Value source: patent US7772264B2
